Tested on: RXF 393 renal
measurement notes: NCI-60 one-dose screen, 48 h
run conditions: 10 µM unless noted
About 83,000 compounds went through this panel and 20% of them were active in at least one assay; those are over-represented in the sample as a whole. Calls of active or inactive are those of the source. Rule for the calls: active = growth percent below 10; inactive = the rest.
Outcomes you can answer with include only these: yes for active, no for inactive

Observe how each entry below is paired with its result.
[[record]]
compound = "OCCN1CCN(CCCN2c3ccccc3Sc3ccc(C(F)(F)F)cc32)CC1"
target_under_test = "RXF 393 renal"
answer_label = "no"

[[record]]
compound = "COc1ccc2c(c1)c(CC(=O)[Se]C)c(C)n2C(=O)c1ccc(Cl)cc1"
target_under_test = "RXF 393 renal"
answer_label = "yes"


Fill in: this test's call for CC(NNC(=S)N1CCCCCC1)c1ccc2ccccc2n1 (stereo not given) is ___
no

Fill in: this test's call for CC1CN(CC(O)c2ccc(Br)cc2)CCO1 (stereo not given) is ___
no

Fill in: this test's call for COc1ccc(OC)c(CCn2cncc2-c2c[nH]c3cc(Br)ccc23)c1 is ___
no

----------
growth values by entry
Tested on: RPMI-8226 leukemia
measurement notes: NCI-60 one-dose screen, 48 h (100 = growth as untreated, 0 = no growth, -100 = all killed)
run conditions: 10 µM unless noted
This is part of a sample that, as a whole, favours compounds with a hit. Of some 83,000 tested, about 20% had one in any assay.
Express your answer in %, writing the number without its unit.

[[record]]
compound = "O=C(/C=C/c1ccc([N+](=O)[O-])cc1)c1ccc2c3c(cccc13)CC2"
unit_string = "%"
data_value = -14.1

[[record]]
compound = "CC(=O)N1N=C(c2ccc(Nc3nc(NCCO)nc(NCCO)n3)cc2)CC1c1ccc(Cl)cc1 (stereo not drawn)"
unit_string = "%"
data_value = 112


Let us move to another entry and its growth.
Please provide the recorded growth for Oc1ccc(/C=N/Nc2nc3ccccc3s2)c(O)c1 , tested on RPMI-8226 leukemia.
37.4

----------
growth values by entry
Tested on: MDA-MB-231 breast
measurement notes: NCI-60 one-dose screen, 48 h (100 = growth as untreated, 0 = no growth, -100 = all killed)
run conditions: 10 µM unless noted
Protocol: Cells are grown in 96 well plates and exposed to the test compound for 48 hours. Compounds are tested at a single concentration, which is 10^-5 M for most compounds. The reported endpoint is percent growth (GI% or GIPRCNT), where numbers from 0 - 100% represent growth inhibition, and numbers from -100% - 0 represent cell death. For example, a value of 40 represents 60% growth inhibition. A value of 0 means no net growth occurred over the course of the experiment. […]
The panel holds about 83,000 compounds, 20% with a hit somewhere; the sample as a whole holds those more often.
Express your answer in %, writing the number without its unit.

Below are worked cases with known answers.
[[record]]
molecule = "O=C1Nc2ccc(Cl)cc2[C@@](C#CC2CC2)(C(F)(F)F)O1"
target_under_test = "MDA-MB-231 breast"
unit_string = "%"
data_value = 86.5

[[record]]
molecule = "CCCCCCCSc1ncnc2[nH]ncc12"
target_under_test = "MDA-MB-231 breast"
unit_string = "%"
data_value = 84.4

[[record]]
molecule = "Clc1ccc2c(c1)C(Br)c1cc(Cl)cc(Cl)c1-2 (configuration not stated)"
target_under_test = "MDA-MB-231 breast"
unit_string = "%"
data_value = 75.6

[[record]]
molecule = "CC(=O)c1ccc(NS(=O)(=O)c2ccc([N+](=O)[O-])cc2)cc1"
target_under_test = "MDA-MB-231 breast"
unit_string = "%"
data_value = 88.9

[[record]]
molecule = "Cc1ccc(-c2csc(N)n2)cc1"
target_under_test = "MDA-MB-231 breast"
unit_string = "%"
data_value = 96.6


Return reported growth; argument: COc1cc(/C=N/NC(=O)c2ccc(C(F)(F)F)nc2Nc2cc(Cl)ccc2C)cc(OC)c1OC
86.3

Return reported growth; argument: COC(=O)c1c(NC(=O)CSc2nnnn2-c2ccc(OC)cc2)sc(C)c1C
76.5

Return reported growth; argument: CCN1CC2=C(Nc3nc(SC)[nH]c(=O)c3C2c2cc(OC)c(OC)c(OC)c2)/C(=C/c2cc(OC)c(OC)c(OC)c2)C1 (configuration not stated)
104

Return reported growth; argument: CC[N+](CCCCCCCCCC[N+](CC)(c1ccccn1)c1ccccn1)(c1ccccn1)c1ccccn1
15.9

Return reported growth; argument: Nc1ccn(C2O[C@H](CO)[C@@H](O)[C@@H]2O)c(=O)n1 (some centres not stated)
68.8

Return reported growth; argument: COc1cccc(-c2nc(-c3ccc(N)cc3)co2)c1
88.1

Return reported growth; argument: COc1ccc2c(=O)c(OC)c(-c3cc(OC)c(OC)c(OC)c3)oc2c1
84.1
